Cited source: ChEMBL document CHEMBL4622864

target: Hepatocyte growth factor receptor (Homo sapiens, UniProt P08581)
Sequence (P08581 whole entry): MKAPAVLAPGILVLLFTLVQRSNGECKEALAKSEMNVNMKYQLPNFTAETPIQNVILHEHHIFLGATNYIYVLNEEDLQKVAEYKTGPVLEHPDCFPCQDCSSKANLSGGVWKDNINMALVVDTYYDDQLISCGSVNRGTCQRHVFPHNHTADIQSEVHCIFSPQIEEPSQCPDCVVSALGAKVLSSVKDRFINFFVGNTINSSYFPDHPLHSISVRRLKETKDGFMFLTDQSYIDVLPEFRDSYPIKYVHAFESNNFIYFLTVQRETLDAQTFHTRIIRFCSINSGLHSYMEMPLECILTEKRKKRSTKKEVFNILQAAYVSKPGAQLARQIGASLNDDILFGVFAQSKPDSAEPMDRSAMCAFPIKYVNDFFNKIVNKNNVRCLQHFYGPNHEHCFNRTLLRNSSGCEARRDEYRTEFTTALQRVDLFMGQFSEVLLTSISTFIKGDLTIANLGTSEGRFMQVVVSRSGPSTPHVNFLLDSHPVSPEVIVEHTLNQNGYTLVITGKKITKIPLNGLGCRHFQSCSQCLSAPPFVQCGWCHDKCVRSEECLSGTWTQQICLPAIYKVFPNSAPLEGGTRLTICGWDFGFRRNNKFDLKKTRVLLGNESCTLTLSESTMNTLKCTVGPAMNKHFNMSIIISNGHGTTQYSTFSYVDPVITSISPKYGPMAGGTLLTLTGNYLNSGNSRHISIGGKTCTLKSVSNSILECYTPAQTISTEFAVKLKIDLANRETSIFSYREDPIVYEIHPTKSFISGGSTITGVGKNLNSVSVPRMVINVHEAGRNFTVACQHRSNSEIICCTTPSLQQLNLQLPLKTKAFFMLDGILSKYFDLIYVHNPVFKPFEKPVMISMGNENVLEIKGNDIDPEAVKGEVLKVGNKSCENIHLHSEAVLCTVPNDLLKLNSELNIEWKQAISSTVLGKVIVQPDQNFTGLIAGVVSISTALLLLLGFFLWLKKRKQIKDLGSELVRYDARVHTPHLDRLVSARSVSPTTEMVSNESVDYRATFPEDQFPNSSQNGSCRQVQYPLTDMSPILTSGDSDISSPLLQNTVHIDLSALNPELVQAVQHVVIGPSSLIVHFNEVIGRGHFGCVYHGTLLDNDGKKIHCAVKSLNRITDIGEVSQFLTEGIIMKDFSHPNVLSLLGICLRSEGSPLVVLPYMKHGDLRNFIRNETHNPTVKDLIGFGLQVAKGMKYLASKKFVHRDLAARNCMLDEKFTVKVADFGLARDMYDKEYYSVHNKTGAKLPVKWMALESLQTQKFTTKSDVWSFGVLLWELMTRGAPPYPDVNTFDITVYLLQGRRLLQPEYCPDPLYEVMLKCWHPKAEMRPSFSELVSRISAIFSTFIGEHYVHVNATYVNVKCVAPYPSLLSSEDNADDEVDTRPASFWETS
Property label: IC50 (nM)
State the answer as a number, implicitly in nM.

// query Look up IC50 for this molecule: "C[C@@H](Oc1cncc(-c2cnn(C3CCNCC3)c2)c1)c1c(Cl)ccc(F)c1Cl"
// result 6

---

biological target: CYP2C19 (Homo sapiens); experiment: Inhibition of CYP2C19 (unknown origin) at 10 uM relative to control; assay type: ADME
Sequence (P33261 whole entry): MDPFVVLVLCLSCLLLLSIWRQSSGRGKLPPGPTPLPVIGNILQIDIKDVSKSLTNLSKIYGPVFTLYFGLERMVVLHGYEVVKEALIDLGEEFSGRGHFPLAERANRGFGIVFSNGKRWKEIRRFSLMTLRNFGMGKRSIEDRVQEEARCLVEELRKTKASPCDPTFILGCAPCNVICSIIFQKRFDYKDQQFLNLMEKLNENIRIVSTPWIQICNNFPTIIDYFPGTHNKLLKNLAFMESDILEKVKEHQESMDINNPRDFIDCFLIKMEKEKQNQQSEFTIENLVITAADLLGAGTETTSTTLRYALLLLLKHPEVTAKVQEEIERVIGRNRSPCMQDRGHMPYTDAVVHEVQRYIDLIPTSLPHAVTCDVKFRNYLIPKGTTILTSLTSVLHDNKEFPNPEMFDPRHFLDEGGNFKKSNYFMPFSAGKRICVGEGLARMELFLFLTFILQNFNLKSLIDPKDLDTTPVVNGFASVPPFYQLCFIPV
Property label: inhibition at 10 µM (%)
Give just the numeric value; % need not be written.

// query inhibition at 10 µM lookup needed for "C[C@@H](Oc1cncc(-c2cnn(C3CCNCC3)c2)c1)c1c(Cl)ccc(F)c1Cl" , thanks.
// result 63
